- assay_overview: BSK_CASM3C_SRB: Viability Assessment in the BioMAP Diversity Plus: CASM3C Assay (AID 2283050);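 further: total protein by SRB staining as cytotoxicity measure in parallel cultures; cells exposed to compound for 24 h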
- cond: primary human coronary artery smooth muscle cells
Active and inactive are the calls of the source. How the source made its calls: active means hit-call score of the fitted dose curve at least 0.9, where 1 is the maximum; inactive means score below 0.9.
reported_metric: outcome

Known outcome results, listed for orientation:
compound	outcome
CCCCC(O)(Cn1cncn1)c1ccc(Cl)cc1Cl (configuration not stated)	inactive
Clc1nc(Cl)nc(Nc2ccccc2Cl)n1	inactive
CC(C)C1(C)N=C(c2ncccc2C(=O)O)NC1=O (configuration not stated)	inactive
C=C(C)CN(CC)c1c([N+](=O)[O-])cc(C(F)(F)F)cc1[N+](=O)[O-]	inactive
COP(=O)(OC)O/C(C)=C/C(=O)N(C)C	inactive
COc1cc(OC)nc(NC(=O)NS(=O)(=O)c2ncccc2OCC(F)(F)F)n1	inactive
Nc1cnn(-c2ccccc2)c(=O)c1Cl	inactive
CC1(C)CCC(=Cc2ccc(Cl)cc2)C1(O)Cn1cncn1 (configuration not stated)	inactive

Give one value of outcome per listed compound.
1. CC1(C)C(C(=O)OC(C#N)c2cccc(Oc3ccccc3)c2)C1(C)C (configuration not stated)
2. CO/N=C(/C1=NOCCO1)c1ccccc1Oc1ncnc(Oc2ccccc2Cl)c1F

[A]
inactive
inactive

Give one value of outcome per listed compound.
1. COc1ccc(-c2ccccc2)cc1NNC(=O)OC(C)C
2. O=P(O)(O)CCCl

[A]
inactive
inactive

* * *

- Read-out: Alkaline Phosphatase, Placental (ALPP) gene, ALPP (gene 250)
- assay_overview: LTEA_HepaRG_ALPP: Life Technologies and Expression Analysis (LTEA) Assay for Alkaline Phosphatase, Placental (ALPP) gene using HepaRG (AID 2283468)
- cond: mRNA level, 48 h; actives raise or lower the signal
Active and inactive are the calls of the source. How the source made its calls: active means hit-call score of the fitted dose curve at least 0.9, where 1 is the maximum; inactive means score below 0.9.
Select the matching outcome among 1 (yes) for active, 0 (no) for inactive

molecule	class_label
Cc1cnc(C2=NC(C)(C(C)C)C(=O)N2)c(C(=O)O)c1 (configuration not stated)	0 (no)
CC(C)Oc1cccc(NC(=O)c2ccccc2C(F)(F)F)c1	0 (no)
CC1(C)CON(Cc2ccccc2Cl)C1=O	0 (no)
COc1cc(OC)nc(NC(=O)NS(=O)(=O)c2ncccc2OCC(F)(F)F)n1	0 (no)
CCOP(=O)(OCC)Oc1nc(Cl)c(Cl)cc1Cl	0 (no)

[Q] What outcome does the record of this test show for `O=C(Nc1ccccc1-c1ccc(Cl)cc1)c1cccnc1Cl` ?
[A] 0 (no)

[Q] What outcome does the record of this test show for `CCOc1nc(C(Cl)(Cl)Cl)ns1` ?
[A] 1 (yes)

[Q] What outcome does the record of this test show for `COC(=O)c1c(C(F)F)nc(C(F)(F)F)c(C2=NCCS2)c1CC(C)C` ?
[A] 0 (no)

[Q] What outcome does the record of this test show for CC(C)(C)C(=O)C(Oc1ccc(Cl)cc1)n1cncn1 (configuration not stated) ?
[A] 0 (no)

[Q] What outcome does the record of this test show for `COP(=S)(OC)Oc1ccc([N+](=O)[O-])c(C)c1` ?
[A] 0 (no)

[Q] What outcome does the record of this test show for CCCCC(O)(Cn1cncn1)c1ccc(Cl)cc1Cl (configuration not stated) ?
[A] 1 (yes)

[Q] What outcome does the record of this test show for CCOC(=O)C(C)OC(=O)c1cc(Oc2ccc(C(F)(F)F)cc2Cl)ccc1[N+](=O)[O-] (configuration not stated) ?
[A] 0 (no)
